Assay details: Compound analysis: liver, adipose and plasma concentrations 3 days after a single oral dose
Format: in vivo, female C57BL/6 mice
Assay context: 3 days after single oral dose; Table 1 doses
Reported liver:adipose ratio (hepatic sequestration criterion 0.3) values for a set of compounds
Measure: liver:adipose ratio (hepatic sequestration criterion 0.3)

Compound | Value
Clc1cc(Cl)c(-c2cc(Cl)c(Cl)cc2Cl)cc1Cl | < 0.3
Clc1ccc(-c2cc(Cl)c(Cl)c(Cl)c2)cc1Cl | > 0.3
Clc1cc2c(cc1Cl)Oc1cc(Cl)c(Cl)cc1O2 [TCDD, 2,3,7,8-tetrachlorodibenzodioxin, reference compound] | > 0.3
Clc1ccc(-c2cc(Cl)c(Cl)c(Cl)c2Cl)cc1Cl | < 0.3
